Cited source for all entries: patent EP4610269A1

# measurement_target: Recombinant soluble human NEP (Homo sapiens)
# Construct: Recombinant soluble human NEP; purchased BioTechne, Wiesbaden, Germany
# Sequence (P08473 52-750 limits assumed): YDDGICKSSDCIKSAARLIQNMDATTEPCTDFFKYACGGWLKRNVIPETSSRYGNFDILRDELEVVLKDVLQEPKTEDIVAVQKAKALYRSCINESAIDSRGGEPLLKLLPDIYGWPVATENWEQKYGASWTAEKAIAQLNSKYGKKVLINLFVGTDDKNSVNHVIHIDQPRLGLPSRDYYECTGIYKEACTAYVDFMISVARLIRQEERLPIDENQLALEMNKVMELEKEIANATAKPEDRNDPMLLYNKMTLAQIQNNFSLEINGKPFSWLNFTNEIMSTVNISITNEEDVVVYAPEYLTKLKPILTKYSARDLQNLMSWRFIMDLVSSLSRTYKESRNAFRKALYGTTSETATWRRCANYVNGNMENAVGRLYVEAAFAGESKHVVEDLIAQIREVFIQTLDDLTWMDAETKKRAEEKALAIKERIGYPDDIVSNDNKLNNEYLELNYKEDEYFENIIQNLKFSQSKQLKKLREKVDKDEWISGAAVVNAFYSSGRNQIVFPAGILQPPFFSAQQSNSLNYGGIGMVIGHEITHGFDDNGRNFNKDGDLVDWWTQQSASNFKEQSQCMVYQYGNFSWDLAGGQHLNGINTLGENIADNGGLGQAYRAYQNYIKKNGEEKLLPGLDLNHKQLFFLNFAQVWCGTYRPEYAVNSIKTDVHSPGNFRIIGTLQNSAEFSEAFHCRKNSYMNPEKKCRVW
# assay_info: Proteolytic stability assay against NEP
# Assay type: in vitro ADME
# condition_description: recombinant soluble human NEP, human NEP 100 ng/mL, compound 10 µM, 37°C, LC-MS quantification, read-out: % intact compound remaining after 24h incubation
Where a SMILES comes first, the peptide text is derived from it. Bridges are numbered along the chain shown (N, C = ends). [ ]: non-standard residue; d: D form. The star is where a group is joined. DOTA = O=C(O)CN1CCN(CC(=O)O)CCN(CC(=O)*)CCN(CC(=O)O)CC1; Phe(4-CONH2) = NC(=O)c1ccc(C[C@H](N)C(=O)O)cc1; Pro(cis-4-F) = O=C(O)[C@@H]1C[C@H](F)CN1; Hyp = O=C(O)[C@@H]1C[C@@H](O)CN1; Cit = NC(=O)NCCC[C@H](N)C(=O)O; Butoxycarbonyl = CCCCOC(=O)*; Orn = NCCC[C@H](N)C(=O)O; Nva = CCC[C@H](N)C(=O)O; AEEA = NCCOCCOCC(=O)O
remaining at 24 h, 10 µM values by entry
Your answer should be a plain number; it is taken to be in %.

molecule	display_unit	remaining at 24 h, 10 µM
CCCCOC(=O)N[C@H]1CSSC[C@@H](C(N)=O)NC(=O)[C@H](CCC)NC(=O)[C@H]([C@@H](C)CC)NC(=O)[C@@H]2C[C@@H](O)CN2C(=O)[C@@H]2C[C@H](F)CN2C(=O)[C@H](Cc2ccccc2)NC(=O)[C@H](Cc2ccc(C(N)=O)cc2)NC(=O)[C@H](CCCNC(=O)CN2CCN(CC(=O)O)CCN(CC(=O)O)CCN(CC(=O)O)CC2)NC(=O)[C@H]([C@@H](C)O)NC1=O [UPAR-276] (Butoxycarbonyl-CT[Orn](DOTA)[Phe(4-CONH2)]F[Pro(cis-4-F)][Hyp]I[Nva]C-NH2; disulfide 1-10)	%	88

Please examine the following record next.
Tell us which remaining at 24 h, 10 µM value is on record for CC[C@H](C)[C@@H]1NC(=O)[C@@H]2CCCN2C(=O)[C@@H]2CCCN2C(=O)[C@H](Cc2ccccc2)NC(=O)[C@H](Cc2ccc(O)cc2)NC(=O)[C@H](CCC(N)=O)NC(=O)[C@H](CCCNC(N)=O)NC(=O)[C@@H](NC(=O)[C@H](CC(C)C)NC(=O)COCCOCCNC(=O)CN2CCN(CC(=O)O)CCN(CC(=O)O)CCN(CC(=O)O)CC2)CSSC[C@@H](C(N)=O)NC(=O)[C@H](CC(C)C)NC1=O [UPAR-229] ({DOTA-AEEA}-LC[Cit]QYFPPILC-NH2; disulfide 2-11)
84

---

# measurement_target: uPAR-expressing HEC-265 human endometrial adenocarcinoma cells (Homo sapiens, UniProt Q03405)
# Sequence (Q03405 23-335): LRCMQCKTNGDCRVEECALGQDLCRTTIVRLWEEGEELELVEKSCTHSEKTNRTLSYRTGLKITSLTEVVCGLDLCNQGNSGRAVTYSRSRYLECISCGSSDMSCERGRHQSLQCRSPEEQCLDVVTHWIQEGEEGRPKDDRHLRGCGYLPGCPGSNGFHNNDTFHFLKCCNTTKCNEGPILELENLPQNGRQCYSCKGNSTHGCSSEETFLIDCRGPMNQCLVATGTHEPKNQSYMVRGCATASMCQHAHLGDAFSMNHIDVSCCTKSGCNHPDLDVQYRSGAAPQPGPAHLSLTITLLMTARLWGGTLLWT
Where a SMILES comes first, the peptide text is derived from it. Bridges are numbered along the chain shown (N, C = ends). [ ]: non-standard residue; d: D form. The star is where a group is joined. DOTA = O=C(O)CN1CCN(CC(=O)O)CCN(CC(=O)*)CCN(CC(=O)O)CC1; Phe(4-Cl) = N[C@@H](Cc1ccc(Cl)cc1)C(=O)O; Pro(cis-4-F) = O=C(O)[C@@H]1C[C@H](F)CN1; Phe(4-NH2) = Nc1ccc(C[C@H](N)C(=O)O)cc1; Hyp = O=C(O)[C@@H]1C[C@@H](O)CN1; Pentanoyl(4-Me) = CC(C)CCC(=O)*; Cit = NC(=O)NCCC[C@H](N)C(=O)O; NMeOrn = CN[C@@H](CCCN)C(=O)O; Butoxycarbonyl = CCCCOC(=O)*; Chg = N[C@H](C(=O)O)C1CCCCC1; Phg = N[C@H](C(=O)O)c1ccccc1; Nva = CCC[C@H](N)C(=O)O; Pentanoyl = CCCCC(=O)*; Aib = CC(C)(N)C(=O)O
experimental_endpoint: IC50

Known results for compounds:
compound	IC50
CCCCOC(=O)N[C@H]1CSSC[C@@H](C(N)=O)NC(=O)[C@H](CCC)NC(=O)[C@H](C2CCCCC2)NC(=O)[C@@H]2C[C@@H](O)CN2C(=O)[C@@H]2C[C@H](F)CN2C(=O)[C@H](Cc2ccc(Cl)cc2)NC(=O)[C@H](Cc2ccc(O)cc2)NC(=O)[C@H](CCCCNC(=O)CN2CCN(CC(=O)O)CCN(CC(=O)O)CCN(CC(=O)O)CC2)NC(=O)[C@H](CCCNC(N)=O)NC1=O [UPAR-476] (Butoxycarbonyl-C[Cit]K(DOTA)Y[Phe(4-Cl)][Pro(cis-4-F)][Hyp][Chg][Nva]C-NH2; disulfide 1-10)	≤ 10 nM
CCCCC(=O)N[C@H]1CSSC[C@@H](C(N)=O)NC(=O)[C@H](CCC)NC(=O)[C@H]([C@@H](C)CC)NC(=O)[C@@H]2C[C@@H](O)CN2C(=O)[C@@H]2CCCN2C(=O)[C@H](Cc2ccccc2)NC(=O)[C@H](Cc2ccc(O)cc2)NC(=O)[C@H](CCCCNC(=O)CN2CCN(CC(=O)O)CCN(CC(=O)O)CCN(CC(=O)O)CC2)NC(=O)[C@H](CCC(=O)O)NC1=O [UPAR-471] (Pentanoyl-CEK(DOTA)YFP[Hyp]I[Nva]C-NH2; disulfide 1-10)	≤ 10 nM
CC[C@H](C)[C@@H]1NC(=O)[C@@H](C)NC(=O)[C@@H]2CCCN2C(=O)[C@H](Cc2ccccc2)NC(=O)[C@H](Cc2ccc(O)cc2)NC(=O)[C@H](CCC(N)=O)NC(=O)C(C)(C)NC(=O)[C@@H](NC(=O)CCC(C)C)CSSC[C@@H](C(N)=O)NC(=O)[C@H](CC(C)C)NC1=O [UPAR-468] ({Pentanoyl(4-Me)}-C[Aib]QYFP[dA]ILC-NH2; disulfide 1-10)	≤ 10 nM
CC[C@H](C)[C@@H]1NC(=O)[C@@H](C)NC(=O)[C@H](C)NC(=O)[C@H](Cc2ccccc2)NC(=O)[C@H](Cc2ccc(O)cc2)NC(=O)[C@H](CCC(N)=O)NC(=O)[C@H](CCCNC(N)=O)NC(=O)[C@@H](NC(=O)CCC(C)C)CSSC[C@@H](C(N)=O)NC(=O)[C@H](CC(C)C)NC1=O [UPAR-319] ({Pentanoyl(4-Me)}-C[Cit]QYFA[dA]ILC-NH2; disulfide 1-10)	39.8 to 100 nM
CCCCOC(=O)N[C@H]1CSSC[C@@H](C(N)=O)NC(=O)[C@H](CCC)NC(=O)[C@H]([C@@H](C)CC)NC(=O)[C@@H]2C[C@@H](O)CN2C(=O)[C@@H]2CCCN2C(=O)[C@H](Cc2ccccc2)NC(=O)[C@H](Cc2ccc(O)cc2)NC(=O)[C@H](CCCCNC(=O)CN2CCN(CC(=O)O)CCN(CC(=O)O)CCN(CC(=O)O)CC2)NC(=O)[C@H](CCCNC(N)=O)NC1=O [UPAR-275] (Butoxycarbonyl-C[Cit]K(DOTA)YFP[Hyp]I[Nva]C-NH2; disulfide 1-10)	≤ 10 nM

Give IC50 for CC[C@H](C)[C@@H]1NC(=O)[C@@H](C)NC(=O)[C@@H]2CCCN2C(=O)[C@H](Cc2ccccc2)NC(=O)[C@H](Cc2ccc(O)cc2)NC(=O)[C@H](CCC(N)=O)NC(=O)[C@H](C)NC(=O)[C@@H](NC(=O)CCC(C)C)CSSC[C@@H](C(N)=O)NC(=O)[C@H](CC(C)C)NC1=O [UPAR-168] ({Pentanoyl(4-Me)}-CAQYFP[dA]ILC-NH2; disulfide 1-10)
≤ 10 nM

Query IC50 for CC[C@H](C)[C@@H]1NC(=O)[C@@H](C)NC(=O)[C@@H]2CCCN2C(=O)[C@H](Cc2ccccc2)NC(=O)[C@H](Cc2ccc(N)cc2)NC(=O)[C@H](CCC(N)=O)NC(=O)[C@H](CCCNC(N)=O)NC(=O)[C@@H](NC(=O)CCC(C)C)CSSC[C@@H](C(N)=O)NC(=O)[C@H](CC(C)C)NC1=O [UPAR-314] ({Pentanoyl(4-Me)}-C[Cit]Q[Phe(4-NH2)]FP[dA]ILC-NH2; disulfide 1-10)
≤ 10 nM

Please report IC50 for the following compound: CCCCC(=O)N[C@H]1CSSC[C@@H](C(N)=O)NC(=O)[C@H](CCC)NC(=O)[C@H]([C@@H](C)CC)NC(=O)[C@@H]2C[C@@H](O)CN2C(=O)[C@H](CCCCN)NC(=O)[C@H](Cc2ccccc2)NC(=O)[C@H](Cc2ccc(O)cc2)NC(=O)[C@H](CCC(N)=O)NC(=O)[C@H](CCCNC(=N)N)NC1=O [UPAR-298] (Pentanoyl-CRQYFK[Hyp]I[Nva]C-NH2; disulfide 1-10)
39.8 to 100 nM

Determine its reported IC50: CCCCC(=O)N[C@H]1CSSC[C@@H](C(N)=O)NC(=O)[C@H](CCC)NC(=O)[C@H]([C@@H](C)CC)NC(=O)[C@H](CCCN)N(C)C(=O)[C@@H]2CCCN2C(=O)[C@H](Cc2ccccc2)NC(=O)[C@H](Cc2ccc(O)cc2)NC(=O)[C@H](CCCCNC(=O)CN2CCN(CC(=O)O)CCN(CC(=O)O)CCN(CC(=O)O)CC2)NC(=O)[C@H](CCCNC(N)=O)NC1=O [UPAR-265] (Pentanoyl-C[Cit]K(DOTA)YFP[NMeOrn]I[Nva]C-NH2; disulfide 1-10)
39.8 to 100 nM

Give IC50 for CCCCC(=O)N[C@H]1CSSC[C@@H](C(N)=O)NC(=O)[C@H](CCC)NC(=O)[C@H]([C@@H](C)CC)NC(=O)[C@@H]2C[C@@H](O)CN2C(=O)[C@@H]2CCCN2C(=O)[C@H](c2ccccc2)NC(=O)[C@H](Cc2ccc(O)cc2)NC(=O)[C@H](CCC(N)=O)NC(=O)[C@H](CCCNC(=N)N)NC1=O [UPAR-203] (Pentanoyl-CRQY[Phg]P[Hyp]I[Nva]C-NH2; disulfide 1-10)
≥ 126 nM
